- test.system: UniProt Q8WUI4
- Sequence (Q8WUI4 whole entry): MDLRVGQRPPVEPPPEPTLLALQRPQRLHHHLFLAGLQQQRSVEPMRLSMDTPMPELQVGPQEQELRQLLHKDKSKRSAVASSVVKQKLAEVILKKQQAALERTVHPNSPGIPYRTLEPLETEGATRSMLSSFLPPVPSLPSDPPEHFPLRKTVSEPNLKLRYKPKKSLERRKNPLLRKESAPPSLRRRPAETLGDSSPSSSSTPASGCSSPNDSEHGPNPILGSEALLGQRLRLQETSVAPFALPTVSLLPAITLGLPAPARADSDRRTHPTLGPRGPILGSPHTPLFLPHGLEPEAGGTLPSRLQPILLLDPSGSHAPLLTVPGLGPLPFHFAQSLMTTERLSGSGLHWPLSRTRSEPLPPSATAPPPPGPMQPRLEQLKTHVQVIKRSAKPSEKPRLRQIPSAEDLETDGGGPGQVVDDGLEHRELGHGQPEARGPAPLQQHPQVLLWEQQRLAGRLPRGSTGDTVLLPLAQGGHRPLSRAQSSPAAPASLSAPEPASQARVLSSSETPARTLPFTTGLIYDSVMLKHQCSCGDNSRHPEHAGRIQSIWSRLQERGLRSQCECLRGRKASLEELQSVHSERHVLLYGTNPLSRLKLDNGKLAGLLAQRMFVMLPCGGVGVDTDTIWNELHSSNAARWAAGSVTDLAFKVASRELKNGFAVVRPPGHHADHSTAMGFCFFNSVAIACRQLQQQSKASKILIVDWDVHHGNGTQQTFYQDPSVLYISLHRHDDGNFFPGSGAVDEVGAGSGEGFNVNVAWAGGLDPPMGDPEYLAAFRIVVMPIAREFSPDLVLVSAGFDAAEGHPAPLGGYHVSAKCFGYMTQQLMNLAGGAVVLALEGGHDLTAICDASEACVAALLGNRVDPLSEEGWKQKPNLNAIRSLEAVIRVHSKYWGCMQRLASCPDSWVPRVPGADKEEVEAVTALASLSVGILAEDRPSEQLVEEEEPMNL
pIC50: −log10 of the molar value.
Record set: pIC50 | UniProt Q8WUI4 | literature, multiple sources.
measurement.type: pIC50

Recorded results for 4 molecules are shown here.
Which value of pIC50 has been reported for `O=C(NO)c1ccc(CN2CCCc3cc(Cl)ccc32)cc1` in the records? 6.29

Which value of pIC50 has been reported for `CC(C)(C)Nc1c(-c2cccc(-c3nc4cc(-c5noc(C(F)(F)F)n5)ccc4[nH]3)c2)nc2ccccn12` in the records? 5.31

Which value of pIC50 has been reported for `CCCC(=O)O` in the records? 3.52

Which value of pIC50 has been reported for `O=C(NO)C(c1ccc(F)cc1)c1ccc(F)cc1` in the records? 5.75

(A) O=C(NOCc1coc(-c2ccccc2)n1)c1ccc(-c2noc(C(F)(F)F)n2)cc1
(B) NC(=O)c1ccc2c(c1)N(Cc1ccc(/C=C/C(=O)NO)cc1)c1ccccc1S2
Kindly compare A with B and tell me which has the lower pIC50 figure. In your reply, give the label of the chosen option. B

(P) O=C(NO)C(c1ccc2c(c1)CCO2)c1ccc2c(c1)CCO2
(Q) O=C(NO)C(OCCCN1C(=O)c2ccccc2C1=O)c1ccccc1 (stereo not given)
Kindly compare P with Q and tell me which has the lower pIC50 figure. In your reply, give the label of the chosen option. Q
(Q: 5.96, P: 6.96)
